assay: proliferation blockers of H69AR lung cancer cells, primary screen, cell-based, human, 86K library (AID 598);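 further: multidrug resistant small cell line overexpressing MRP-1 efflux transporter; 100% = mean luminescence of untreated control wells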
condition.notes: H69AR lung tumor viability, ATP luminescence, 72 h; at 10 µM
Hit rate of the full screen: of about 85,000 compounds, about 5,100 (6%) were called active.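 How the source made its calls: active means viability at or below 40%; inactive means viability above 40%.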 The sample holds actives, similar compounds and a random draw of the others, so the mix is not that of the screen.
Could you please pick one outcome from this set? label 1 = active, label 0 = inactive

Reference set (4 entries):
{"compound": "COC(=O)CSC1=C(C#N)C(c2ccccc2OC)C(C(=O)OC)C(=O)N1 (stereo not given)", "group.label": "label 0"}
{"compound": "CC1=C(C(=O)Nc2ccccc2)C(c2ccco2)C(C#N)=C(SCC(N)=O)N1 (stereo not given)", "group.label": "label 0"}
{"compound": "CCOC(=O)CSC1=C(C#N)C(c2ccco2)C(C(=O)OCc2ccccc2)=C(C)N1 (stereo not given)", "group.label": "label 1"}
{"compound": "Cc1ccc(C2CC(=O)NC(SCC(=O)OCc3ccccc3)=C2C#N)o1 (stereo not given)", "group.label": "label 1"}

// switching to the query compound
# input Dear all, I need the recorded test outcome for `CCc1ccc(NC(=O)CN2C(=O)CSC2=O)cc1` , thank you.
# output label 0
